Provenance of the data: the MegaScale stability set (Tsuboyama et al. 2023)

B1: EHEE_rd2_0191 (parent)
chain: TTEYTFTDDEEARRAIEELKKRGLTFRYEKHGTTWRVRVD

# Variants of: B1
# Procedure Summary: folding stability dG (cDNA display proteolysis); higher = more stable
# Assay Conditions: PBS, room temperature
Assay Endpoint: folding stability dG

>>> df
                             chain_sequence         result
0  TTEYTFTDDEEARMAIEELKKRGLTFRYEKHGTTWRVRVD [R14M]  1.97 kcal/mol
1  TTIYTFTDDEEARRAIEELKKRGLTFRYEKHGTTWRVRVD [E3I]  2.52 kcal/mol

Value of folding stability dG reported for the variant TTEYTFTDDEEARRAIEELKKRGLTFRCEKHGTTWRVRVD [Y28C] is 2.52 kcal/mol

Looking up TTEYTFTDDEEARRAIEELKKRMLTFRYEKHGTTWRVRVD [G23M] , I found its folding stability dG recorded as 0.906 kcal/mol

Documented folding stability dG of ITEYTFTDDEEARRAIEELKKRGLTFRYEKHGTTWRVRVD [T1I] : 2.44 kcal/mol

// folding stability dG value for TTEYTFTDDEEARRAIEELKKRGLTFRYEKHGTTWWVRVD [R36W] : 2.7 kcal/mol
